All values here come from patent US8778966B2.

Biological target: TANK-2 enzyme (Homo sapiens, UniProt Q9H2K2)
Construct: made in house
Assay: In vitro Scintillation Proximity Assay (SPA) for TANK-2 inhibitory activity
Type: biochemical
Settings: read-out: in vitro SPA assay TANK-2 pIC50 (converted)
endpoint: IC50 (µM)

Here's what some known entries look like.
- CCc1cc2ccc(C(C)(C#N)CN3CCN(c4ccc(C#N)cn4)CC3)cc2[nH]c1=O (stereo not drawn) [Compound 377]: 0.0501
- CCc1cc2ccc(C(C)(C#N)Cc3cc(Cl)cc4c3OCOC4)cc2[nH]c1=O (stereo not drawn) [Compound 90]: 0.0794
- CCCC(C#N)(Cc1ccccc1)c1ccc2cc(CC)c(=O)[nH]c2c1 (stereo not drawn) [Compound 31]: 0.251
- CCc1cc2ccc([C@](C)(C#N)Cc3cccc(C#CCO)c3)cc2[nH]c1=O (single isomer, unassigned) [Compound 296]: 0.2
- CCc1cc2ccc(C(C)(C#N)CN(C)Cc3ccccc3)cc2[nH]c1=O (stereo not drawn) [Compound 189]: 2.51
- CCc1cc2ccc(C(C)(C#N)Cc3cccc(N4CCCC4)n3)cc2[nH]c1=O (stereo not drawn) [Compound 226]: 0.2
- COc1cc2ccc(C(C)(C#N)Cc3cccc(C#N)n3)cc2[nH]c1=O (stereo not drawn) [Compound 218]: 1
- CCc1cc2ccc([C@@](C)(C#N)C[C@@H]3CCc4cc(C)ccc4O3)cc2[nH]c1=O [Compound 252]: 0.794

a. CCc1cc2ccc(C(C)(C#N)Cc3cccc(N)c3)cc2[nH]c1=O (stereo not drawn) [Compound 15]
b. CCc1cc2ccc(C(C)(C#N)CCOc3ccc(C#N)cc3)cc2[nH]c1=O (stereo not drawn) [Compound 161]
-- ask Consider a and b . Which of these has its IC50 at a higher number? Reply with the label of the item you choose.
-- reply b
(b: 0.158 µM, a: 0.1 µM)

---

Tested on: PC3 cells
Assay: EB1 Comet (microtubule disruption) assay
Assay type: cell-based, human
Details: Homo sapiens, PC-3, 1 h, 1 hour treatment, read-out: EB1 pLAC (converted)
As shown below, each of these molecules has a reported minimal effective concentration value.
Express it in µM; write the number only.

• Cc1cc2ccc(C(C)(C#N)CCCCOc3ccccc3)cc2[nH]c1=O (stereo not drawn) [Compound 272] = 1
• CCc1cc2ccc(C(C)(C#N)Cc3ccc(OC)nc3)cc2[nH]c1=O (stereo not drawn) [Compound 352] = 1

-- ask Any idea what minimal effective concentration came out for CCOc1cc(N(C)C)nc(CC(C)(C#N)c2ccc3cc(CC)c(=O)[nH]c3c2)n1 (stereo not drawn) [Compound 312] on PC3 cells?
-- reply 1

---

Biological target: Human PARP-1 enzyme (Homo sapiens, UniProt P09874)
Construct: purchased Trevigen
Sequence (P09874 whole entry): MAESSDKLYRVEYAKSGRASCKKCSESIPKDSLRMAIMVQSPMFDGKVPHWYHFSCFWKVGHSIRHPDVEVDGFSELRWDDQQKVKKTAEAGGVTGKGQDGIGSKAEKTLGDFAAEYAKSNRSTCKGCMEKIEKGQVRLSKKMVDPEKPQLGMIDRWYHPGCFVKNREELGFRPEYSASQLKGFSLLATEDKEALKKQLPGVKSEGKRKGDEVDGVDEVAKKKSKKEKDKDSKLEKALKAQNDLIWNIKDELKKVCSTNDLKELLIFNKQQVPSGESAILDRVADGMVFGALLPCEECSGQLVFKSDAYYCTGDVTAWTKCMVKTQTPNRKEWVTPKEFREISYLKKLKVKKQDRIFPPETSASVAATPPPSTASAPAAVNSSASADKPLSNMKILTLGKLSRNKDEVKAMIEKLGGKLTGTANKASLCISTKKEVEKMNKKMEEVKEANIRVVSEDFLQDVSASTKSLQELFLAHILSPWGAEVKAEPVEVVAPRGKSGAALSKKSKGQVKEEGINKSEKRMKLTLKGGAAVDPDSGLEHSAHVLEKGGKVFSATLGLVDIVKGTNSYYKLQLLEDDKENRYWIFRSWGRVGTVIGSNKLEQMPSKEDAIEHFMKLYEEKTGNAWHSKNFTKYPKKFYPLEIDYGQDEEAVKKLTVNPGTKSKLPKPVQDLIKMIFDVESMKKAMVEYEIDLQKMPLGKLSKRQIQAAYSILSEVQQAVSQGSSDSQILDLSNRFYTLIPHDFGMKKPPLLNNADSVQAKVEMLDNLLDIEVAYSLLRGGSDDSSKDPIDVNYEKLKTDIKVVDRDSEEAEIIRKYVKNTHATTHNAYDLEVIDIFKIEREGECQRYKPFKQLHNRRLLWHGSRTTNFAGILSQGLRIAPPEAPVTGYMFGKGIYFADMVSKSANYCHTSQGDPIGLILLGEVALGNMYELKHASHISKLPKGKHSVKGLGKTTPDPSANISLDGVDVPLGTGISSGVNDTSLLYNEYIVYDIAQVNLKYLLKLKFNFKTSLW
Test: In vitro Scintillation Proximity Assay (SPA) for PARP-1 inhibitory activity
Type: biochemical
Settings: read-out: in vitro SPA assay PARP-1 pIC50 (converted)
endpoint: IC50 (nM)

- Cc1cc2ccc(C(C)(C#N)Cc3cccc(C#N)n3)cc2[nH]c1=O (stereo not drawn) [Compound 227]: 100
- CCc1cc2ccc(C(C)(C#N)Cc3nccc(OC)n3)cc2[nH]c1=O (stereo not drawn) [Compound 360]: 100
- CCc1cc2ccc(C(C#N)(CC)CCOc3ccc(C#N)cc3)cc2[nH]c1=O (stereo not drawn) [Compound 271]: 100

---

Target: Human PARP-1 enzyme (Homo sapiens, UniProt P09874)
Construct: purchased Trevigen
Test: In vitro Scintillation Proximity Assay (SPA) for PARP-1 inhibitory activity
Assay type: biochemical
Conditions: read-out: in vitro SPA assay PARP-1 pIC50 (converted)
endpoint: IC50 (nM)

- Cc1cc2ccc(C(C)(C#N)C3CCc4cc(Br)ccc43)cc2[nH]c1=O (stereo not shown) [Compound 243]: 316
- CCc1cc2c(OC)cc(C(C)(C#N)Cc3nc(OC)cc(OC)n3)cc2[nH]c1=O (stereo not shown) [Compound 229]: 63.1
- CCc1cc2ccc(C(C)(C#N)Cc3cccc(N4CCOCC4)c3)cc2[nH]c1=O (stereo not shown): 398

P. CCc1cc2ccc(C(C)(C#N)Cc3cccc(Br)c3)cc2[nH]c1=O (stereo not shown)
Q. CCc1cc2ccc(C(C)(C#N)Cc3cc(F)cc(C#N)c3)cc2[nH]c1=O (stereo not shown)
R. Cc1cc2ccc(C(C)(C#N)C3CCc4ccc(Br)cc43)cc2[nH]c1=O (stereo not shown)
S. CCc1cc2ccc(C(C)(C#N)Cc3cccc(OC)n3)cc2[nH]c1=O (stereo not shown)
-- ask Please give the order of these molecules when sorted by IC50, largest value leading. Write out the labels following the order that was asked for.
-- reply P, R, S, Q

---

Target: TANK-2 enzyme (Homo sapiens, UniProt Q9H2K2)
Construct: made in house
Sequence (Q9H2K2 1-1166): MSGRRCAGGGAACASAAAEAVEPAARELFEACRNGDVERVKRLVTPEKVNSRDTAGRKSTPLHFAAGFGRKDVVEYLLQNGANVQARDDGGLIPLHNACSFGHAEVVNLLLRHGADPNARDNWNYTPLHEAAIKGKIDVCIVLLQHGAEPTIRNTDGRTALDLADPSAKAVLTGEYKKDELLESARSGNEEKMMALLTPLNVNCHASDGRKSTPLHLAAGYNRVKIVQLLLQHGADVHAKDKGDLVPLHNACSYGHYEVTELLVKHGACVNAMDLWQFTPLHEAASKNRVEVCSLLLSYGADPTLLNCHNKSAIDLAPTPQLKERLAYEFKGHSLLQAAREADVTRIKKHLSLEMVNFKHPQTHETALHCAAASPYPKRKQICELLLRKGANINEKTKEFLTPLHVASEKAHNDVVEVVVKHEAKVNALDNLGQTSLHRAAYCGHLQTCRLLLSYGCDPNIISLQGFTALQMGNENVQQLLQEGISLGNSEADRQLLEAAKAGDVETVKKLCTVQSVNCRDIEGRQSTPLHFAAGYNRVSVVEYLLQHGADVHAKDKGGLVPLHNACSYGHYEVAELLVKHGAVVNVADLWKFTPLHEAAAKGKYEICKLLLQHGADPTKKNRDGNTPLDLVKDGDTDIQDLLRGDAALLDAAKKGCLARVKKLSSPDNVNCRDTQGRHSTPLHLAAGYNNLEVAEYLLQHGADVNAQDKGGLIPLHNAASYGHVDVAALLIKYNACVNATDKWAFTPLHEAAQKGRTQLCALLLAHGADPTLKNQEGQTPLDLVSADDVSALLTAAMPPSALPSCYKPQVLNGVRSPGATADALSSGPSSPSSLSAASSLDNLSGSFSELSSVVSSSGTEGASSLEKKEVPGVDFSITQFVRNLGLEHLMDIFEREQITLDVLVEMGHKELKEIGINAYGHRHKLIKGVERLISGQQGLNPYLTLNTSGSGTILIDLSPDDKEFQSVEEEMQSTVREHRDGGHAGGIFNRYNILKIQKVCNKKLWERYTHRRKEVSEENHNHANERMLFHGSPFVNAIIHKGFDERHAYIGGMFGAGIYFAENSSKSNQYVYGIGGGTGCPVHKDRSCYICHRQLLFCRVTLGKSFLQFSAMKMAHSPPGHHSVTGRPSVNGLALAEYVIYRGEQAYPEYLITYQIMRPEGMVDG
Assay: In vitro Scintillation Proximity Assay (SPA) for TANK-2 inhibitory activity
Assay type: biochemical
Details: read-out: in vitro SPA assay TANK-2 pIC50 (converted)
endpoint: IC50 (µM)

Here's what some known entries look like.
* CCc1cc2ccc(C(C)(C#N)Cc3cccc(Cl)c3F)cc2[nH]c1=O (stereo not shown) [Compound 130] | 0.0794
* CCc1cc2ccc(C(C)(C#N)Cc3cc(Br)cc(N(C)C)c3)cc2[nH]c1=O (stereo not shown) [Compound 260] | 0.251
* CCc1cc2ccc(C(C)(C#N)Cc3cc(C)nc(Cl)c3)cc2[nH]c1=O (stereo not shown) [Compound 326] | 0.398
* CCc1cc2ccc(C(C#N)(CCOc3ccccc3)C3CC3)cc2[nH]c1=O (stereo not shown) [Compound 166] | 0.126
* CCc1cc2ccc(C(C)(C#N)Cc3cc(C)nc(C#N)c3)cc2[nH]c1=O (stereo not shown) [Compound 328] | 0.02

A. CCc1cc2ccc([C@@](C)(C#N)Cc3cccc(C#N)c3)cc2[nH]c1=O (single isomer, unassigned) [Compound 268]
B. CCc1cc2c(OC)cc(C(C)(C#N)Cc3nc(OC)cc(OC)n3)cc2[nH]c1=O (single isomer, unassigned) [Compound 230]
C. CCOc1ccccc1OCCC(C)(C#N)c1ccc2cc(CC)c(=O)[nH]c2c1 (stereo not shown) [Compound 142]
D. CCc1cc2ccc(C(C)(C#N)Cc3cccc(OCCOC)n3)cc2[nH]c1=O (stereo not shown) [Compound 219]
E. CCc1cc2ccc(C(C)(C#N)Cc3cccc(OCCCN4CCNCC4)c3)cc2[nH]c1=O (stereo not shown) [Compound 25]
-- ask Order the records, beginning with the lowest IC50 and ending with the highest. Write out the labels following the order that was asked for.
-- reply B, E, A, C, D

A. CCc1cc2ccc(C(C)(C#N)Cc3ccccc3C(F)(F)F)cc2[nH]c1=O (stereo not shown) [Compound 103]
B. CCc1cc2ccc(C(C)(C#N)CN3CCN(c4ccccn4)CC3)cc2[nH]c1=O (stereo not shown) [Compound 233]
C. CCc1cc2ccc(C(C)(C#N)Cc3cccc(CO)n3)cc2[nH]c1=O (stereo not shown) [Compound 345]
-- ask Order the records, beginning with the lowest IC50 and ending with the highest. Write out the labels following the order that was asked for.
-- reply A, B, C
(A: 0.0794 µM, B: 0.158 µM, C: 0.501 µM)
